Data credit: patent US7189859B2

molecular target: cytochrome P-45011β enzyme system (Rattus norvegicus); construct: Whole adrenals from adult male Wistar rats were homogenized; from tissue; host or cells: whole adrenals of adult male Wistar rats, washed membrane pellet; experiment: Displacement of [^131I]MTO binding
MEASURE: pIC50
Quick note: pIC50 values are minus log10 of concentrations in mol/L.

Prompt: Look at this compound and give its reported pIC50. COC(=O)c1cncn1[C@H](C)c1ccc(I)cc1 [Example 4-iodo-MTO]
Completion: 8.05

Prompt: Queued: CC(C)(C(=O)c1cccnc1)c1cccnc1 [Metyrapone]
Completion: 5.92

Prompt: Queued: COC(=O)c1cncn1C(C)c1ccccc1 (stereo not shown) [metomidate]
Completion: 8.43

Prompt: Queued: CCOC(=O)c1cncn1[C@H](C)c1ccccc1 [etomidate]
Completion: 8.96

----------
IC50 listing for selected molecules.
Target: cytochrome P-45011β enzyme system (Rattus norvegicus)
Construct: Whole adrenals from adult male Wistar rats were homogenized; from tissue; host or cells: whole adrenals of adult male Wistar rats, washed membrane pellet
Sequence (P15393 25-499): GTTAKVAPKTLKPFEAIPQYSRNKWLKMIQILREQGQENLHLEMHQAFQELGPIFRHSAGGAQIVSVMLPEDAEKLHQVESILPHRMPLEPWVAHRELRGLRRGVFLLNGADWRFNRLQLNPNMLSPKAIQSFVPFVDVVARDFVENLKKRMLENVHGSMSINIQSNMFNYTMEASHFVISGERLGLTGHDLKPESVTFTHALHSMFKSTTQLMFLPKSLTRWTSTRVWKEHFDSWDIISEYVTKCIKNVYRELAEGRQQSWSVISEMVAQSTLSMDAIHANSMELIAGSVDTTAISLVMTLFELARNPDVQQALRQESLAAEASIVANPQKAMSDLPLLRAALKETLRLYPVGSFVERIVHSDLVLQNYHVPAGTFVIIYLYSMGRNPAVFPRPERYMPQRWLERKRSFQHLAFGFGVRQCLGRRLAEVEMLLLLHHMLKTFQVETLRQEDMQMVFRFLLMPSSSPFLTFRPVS
Assay: Displacement of [^131I]MTO binding
Details: read-out: IC50 (inhibition of [^131I]MTO binding); rat adrenal membranes
Method: Test compounds were incubated at 0.01–100 nM concentrations. Non-specific binding was determined with etomidate (10 μM). […] The filters containing membranes with bound radioligand were measured in a gamma-spectrometer. IC50 values (the molar concentration of compound necessary to inhibit binding by 50%) were determined for each test compound by non-linear, least squares regression analysis, using an iterative curve fitting routine.
The answer should read as a number with its unit following.

* C[C@H](c1ccccc1)n1cncc1C(=O)OCCF | 0.003 µM

Then there is this molecule:
Prompt: Look at this molecule and give its reported IC50. CC(c1ccccc1)n1cncc1C(=O)O (centres unmarked)
Completion: 123 µM

----------
Biological target: rat adrenal membranes (cytochrome P-450 β-hydroxylase) (Rattus norvegicus)
Sequence (P15393 25-499): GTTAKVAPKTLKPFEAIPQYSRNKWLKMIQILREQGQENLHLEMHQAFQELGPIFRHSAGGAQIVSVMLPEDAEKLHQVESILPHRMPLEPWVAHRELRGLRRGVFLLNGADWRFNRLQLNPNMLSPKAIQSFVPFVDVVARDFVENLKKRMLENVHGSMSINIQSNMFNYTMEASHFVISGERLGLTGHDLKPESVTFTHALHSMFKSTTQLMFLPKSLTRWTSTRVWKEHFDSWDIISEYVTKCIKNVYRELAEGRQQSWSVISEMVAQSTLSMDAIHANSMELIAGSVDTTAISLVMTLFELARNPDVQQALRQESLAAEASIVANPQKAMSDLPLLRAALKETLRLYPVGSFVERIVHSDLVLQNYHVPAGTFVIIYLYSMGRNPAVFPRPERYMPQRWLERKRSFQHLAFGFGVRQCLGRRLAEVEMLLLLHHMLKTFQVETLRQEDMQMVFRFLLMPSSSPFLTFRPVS
Test: [^131I]MTO binding to rat adrenal membranes (association, dissociation, saturation)
Settings: saturation analysis, 2–100 nM 4-iodo-MTO carrier, 30 minutes incubation, pH 7.1; (15)
MEASURE: Kd (nM)
Write the answer as a number in nM, unit excluded.

Prompt: Look at this molecule and give its reported Kd. COC(=O)c1cncn1[C@H](C)c1ccc(I)cc1 [[^131I]MTO]
Completion: 7.4
